# Tested on: AECO001 (ATCC25922)
# Method: MIC broth microdilution, AECO001
# Assay type: cell-based, E. coli
# Condition Info: Escherichia coli, ATCC25922, read-out: MIC AECO001
# MIC annotations

Examples with answers:
INSERT INTO assay_data (compound, observed_measurement) VALUES
  ('O=C(NC(C(=O)NO)C1(O)CC1)c1ccc(C#CC#CC2CC2)cc1 (centres unmarked)', '< 2 µg/mL'),
  ('C[C@@H](N)[C@H](NC(=O)c1ccc(C#Cc2ccc(CNC(=N)N)cc2)cc1)C(=O)NO', '16 to 64 µg/mL'),
  ('C[C@@H](O)[C@H](NC(=O)c1ccc(SCc2ccc(CN3CCOCC3)cc2)cc1)C(=O)NO', '16 to 64 µg/mL'),
  ('C[C@@H](N)[C@H](NC(=O)c1ccc(C#CC#CC2CCC2)cc1)C(=O)NO', '< 2 µg/mL'),
  ('NC[C@H](NC(=O)c1ccc(C#C/C=C/c2ccc(CO)cc2)cc1)C(=O)NO', '< 2 µg/mL');

Ask: Bench note: what MIC did `CC(C)(N)[C@H](NC(=O)c1ccc(C#CC#CCC2CC2)cc1)C(=O)NO` show?
Result: < 2 µg/mL

Ask: Ok, now `CC(C)(N)[C@H](NC(=O)c1ccc(C#CC#Cc2cccnc2)cc1)C(=O)NO`
Result: < 2 µg/mL

Ask: Ok, now `CC(C)(N)[C@H](NC(=O)c1ccc(C#CC#Cc2ccc(N)cc2)cc1)C(=O)NO`
Result: < 2 µg/mL
